# Tested on: phospho-p90 RSK (RSK1 Thr359/Ser363) in A375 (Braf V600E) cells
# method.summary: Phospho-p90 RSK ELISA using A375 (Braf V600E) cells
# Format: cell-based
# stated.conditions: Homo sapiens, A-375, 2 hours compound treatment, read-out: Cellular Phospho-p90RSK IC50
readout.name: IC50

{"columns": ["molecule", "subject.of.test", "IC50"],
 "data": [
  ["CC(c1ccccc1)c1cc2cc3c(-c4ccnc(N5CCN(C)CC5)c4)n[nH]c3cc2[nH]c1=O (stereo not shown) [Example 318]", "phospho-p90 RSK (RSK1 Thr359/Ser363) in A375 (Braf V600E) cells", "≤ 0.25 µM"],
  ["Cc1cc(-c2n[nH]c3cc4c(cc23)CN([C@H]2CN(Cc3ccccc3)CC(F)(F)C2)C(=O)N4)ccn1 [Example 264]", "phospho-p90 RSK (RSK1 Thr359/Ser363) in A375 (Braf V600E) cells", "≤ 0.25 µM"],
  ["Cc1cc(-c2n[nH]c3cc4c(cc23)CN(Cc2nccs2)C(=O)N4)ccn1 [Example 56]", "phospho-p90 RSK (RSK1 Thr359/Ser363) in A375 (Braf V600E) cells", "0.25 to 1 µM"],
  ["Cc1cc(-c2n[nH]c3cc4c(cc23)CN([C@@H]2CN(CC(F)(F)F)C[C@H]2c2ccc(F)cc2)C(=O)N4)ccn1 (racemic) [Example 300]", "phospho-p90 RSK (RSK1 Thr359/Ser363) in A375 (Braf V600E) cells", "≤ 0.25 µM"],
  ["Cc1cc(-c2n[nH]c3cc4c(cc23)CN([C@@H]2CCCN(CC(O)C(C)(C)C)C2)C(=O)N4)ccn1 (stereo partly shown) [Example 236]", "phospho-p90 RSK (RSK1 Thr359/Ser363) in A375 (Braf V600E) cells", "> 1 µM"],
  ["COc1ncc(-c2n[nH]c3cc4c(cc23)CN([C@H](C)c2cccc(Cl)c2)C(=O)N4)cn1 [Example 71]", "phospho-p90 RSK (RSK1 Thr359/Ser363) in A375 (Braf V600E) cells", "≤ 0.25 µM"]
]}

Moving on to the next molecule.
Incoming: Sample CCN1C[C@@H](N2Cc3cc4c(-c5ccnc(C)c5)n[nH]c4cc3NC2=O)[C@H](c2ccccc2)C1 (racemic) [Example 278] — what was its IC50?
Outgoing: ≤ 0.25 µM
